B1: glmS ribozyme (parent)
chain: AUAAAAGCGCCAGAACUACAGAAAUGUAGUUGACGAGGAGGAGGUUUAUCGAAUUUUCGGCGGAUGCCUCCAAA

variants of: B1; assay: self-cleavage kobs at 10000 uM GlcN6P; higher = faster cleavage; RNA array; conditions: with glucosamine-6-phosphate
Variants at the floor of the assay were thinned out.

{"mutant label": "G35C A64U", "self-cleavage kobs at 10000 uM GlcN6P": "< 1e-05 s⁻¹"}
{"mutant label": "A12U U31A", "self-cleavage kobs at 10000 uM GlcN6P": "0.0257 s⁻¹"}
{"mutant label": "U46C U55C", "self-cleavage kobs at 10000 uM GlcN6P": "0.00515 s⁻¹"}
{"mutant label": "G7A C34A", "self-cleavage kobs at 10000 uM GlcN6P": "< 1e-05 s⁻¹"}
{"mutant label": "A14U G43C", "self-cleavage kobs at 10000 uM GlcN6P": "< 1e-05 s⁻¹"}
{"mutant label": "A33U G40A", "self-cleavage kobs at 10000 uM GlcN6P": "4.3e-05 s⁻¹"}
{"mutant label": "A12G U30G U47C U49C", "self-cleavage kobs at 10000 uM GlcN6P": "< 1e-05 s⁻¹"}
{"mutant label": "G29U U54A", "self-cleavage kobs at 10000 uM GlcN6P": "0.0068 s⁻¹"}
{"mutant label": "G13C G37A G62A", "self-cleavage kobs at 10000 uM GlcN6P": "< 1e-05 s⁻¹"}
{"mutant label": "U31A A42G", "self-cleavage kobs at 10000 uM GlcN6P": "0.0188 s⁻¹"}
{"mutant label": "A42U A53G", "self-cleavage kobs at 10000 uM GlcN6P": "0.000206 s⁻¹"}
{"mutant label": "G32U C50G C68G", "self-cleavage kobs at 10000 uM GlcN6P": "9.96e-05 s⁻¹"}
{"mutant label": "A15U C34G G66U C71U", "self-cleavage kobs at 10000 uM GlcN6P": "< 1e-05 s⁻¹"}
{"mutant label": "A6C G13A A52C", "self-cleavage kobs at 10000 uM GlcN6P": "< 1e-05 s⁻¹"}
{"mutant label": "A14U G32C C50A C68G", "self-cleavage kobs at 10000 uM GlcN6P": "7.34e-05 s⁻¹"}
{"mutant label": "C67G C70G", "self-cleavage kobs at 10000 uM GlcN6P": "< 1e-05 s⁻¹"}
{"mutant label": "C16U G44A U54G", "self-cleavage kobs at 10000 uM GlcN6P": "0.000358 s⁻¹"}
{"mutant label": "G9U A48G", "self-cleavage kobs at 10000 uM GlcN6P": "< 1e-05 s⁻¹"}
{"mutant label": "A52U G62A", "self-cleavage kobs at 10000 uM GlcN6P": "< 1e-05 s⁻¹"}
{"mutant label": "G44U A53C C58U C71U", "self-cleavage kobs at 10000 uM GlcN6P": "< 1e-05 s⁻¹"}
{"mutant label": "A12U A53U", "self-cleavage kobs at 10000 uM GlcN6P": "0.112 s⁻¹"}
{"mutant label": "A36G C61A", "self-cleavage kobs at 10000 uM GlcN6P": "< 1e-05 s⁻¹"}
{"mutant label": "G9U G29U A42G U65G", "self-cleavage kobs at 10000 uM GlcN6P": "< 1e-05 s⁻¹"}
{"mutant label": "A12C G26U", "self-cleavage kobs at 10000 uM GlcN6P": "0.0113 s⁻¹"}
{"mutant label": "G7C C67U", "self-cleavage kobs at 10000 uM GlcN6P": "< 1e-05 s⁻¹"}
{"mutant label": "A33G C67A", "self-cleavage kobs at 10000 uM GlcN6P": "< 1e-05 s⁻¹"}
{"mutant label": "A14C A39C", "self-cleavage kobs at 10000 uM GlcN6P": "0.000346 s⁻¹"}
{"mutant label": "G9U G35C A42C", "self-cleavage kobs at 10000 uM GlcN6P": "< 1e-05 s⁻¹"}
{"mutant label": "G9A G13A A14C C61A", "self-cleavage kobs at 10000 uM GlcN6P": "< 1e-05 s⁻¹"}
{"mutant label": "C8A G62U", "self-cleavage kobs at 10000 uM GlcN6P": "5.53e-05 s⁻¹"}
{"mutant label": "U65C C71A", "self-cleavage kobs at 10000 uM GlcN6P": "0.000102 s⁻¹"}
{"mutant label": "U49C G59U", "self-cleavage kobs at 10000 uM GlcN6P": "< 1e-05 s⁻¹"}
{"mutant label": "A12U C70G", "self-cleavage kobs at 10000 uM GlcN6P": "0.001 s⁻¹"}
{"mutant label": "A6U G66A", "self-cleavage kobs at 10000 uM GlcN6P": "0.000155 s⁻¹"}
{"mutant label": "A12C A39G", "self-cleavage kobs at 10000 uM GlcN6P": "0.0245 s⁻¹"}
{"mutant label": "U47A G51U", "self-cleavage kobs at 10000 uM GlcN6P": "< 1e-05 s⁻¹"}
{"mutant label": "A12G A14G G59C", "self-cleavage kobs at 10000 uM GlcN6P": "0.000119 s⁻¹"}
{"mutant label": "A15G C16U", "self-cleavage kobs at 10000 uM GlcN6P": "0.00798 s⁻¹"}
{"mutant label": "U47G U49G", "self-cleavage kobs at 10000 uM GlcN6P": "8.15e-05 s⁻¹"}
{"mutant label": "U30A C61A", "self-cleavage kobs at 10000 uM GlcN6P": "< 1e-05 s⁻¹"}
{"mutant label": "A14U A52G", "self-cleavage kobs at 10000 uM GlcN6P": "0.000325 s⁻¹"}
{"mutant label": "C8A U55G A64C U69G", "self-cleavage kobs at 10000 uM GlcN6P": "5.15e-05 s⁻¹"}
{"mutant label": "G32C A53G C67G", "self-cleavage kobs at 10000 uM GlcN6P": "3.72e-05 s⁻¹"}
{"mutant label": "U47C U49G", "self-cleavage kobs at 10000 uM GlcN6P": "0.000169 s⁻¹"}
{"mutant label": "A12C A15U A39G", "self-cleavage kobs at 10000 uM GlcN6P": "0.003 s⁻¹"}
{"mutant label": "C8G U31A U56A C70A", "self-cleavage kobs at 10000 uM GlcN6P": "< 1e-05 s⁻¹"}

Recorded values, source the supplement of paper PMC7125110.
